measurement target: UniProt P35348
Sequence (P35348 1-466): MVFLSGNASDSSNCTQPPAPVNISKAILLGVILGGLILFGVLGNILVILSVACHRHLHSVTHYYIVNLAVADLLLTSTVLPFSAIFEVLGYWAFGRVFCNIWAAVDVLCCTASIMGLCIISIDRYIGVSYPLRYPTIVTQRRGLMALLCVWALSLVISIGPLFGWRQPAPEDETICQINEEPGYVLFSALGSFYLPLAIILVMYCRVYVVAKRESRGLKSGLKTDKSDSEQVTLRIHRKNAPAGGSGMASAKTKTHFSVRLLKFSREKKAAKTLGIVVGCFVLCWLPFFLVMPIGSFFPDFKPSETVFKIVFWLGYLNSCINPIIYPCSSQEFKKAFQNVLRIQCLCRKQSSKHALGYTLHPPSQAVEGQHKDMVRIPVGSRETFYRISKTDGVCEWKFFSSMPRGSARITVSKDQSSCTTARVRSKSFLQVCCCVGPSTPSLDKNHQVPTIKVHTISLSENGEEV
protocol summary: Competition binding with ^125I-HEAT, wild type receptor
experimental parameters: linear fit of ρ-Da1a IC50 against ^125I-HEAT concentration
observable: Kd
Respond with a number, then the unit of measure.

Lookup: API: value(readout=Kd, system=UniProt P35348) for record O=C1c2ccccc2CCC1CNCCc1ccc(O)cc1 (stereo not shown)
Found: 43.5 pM
